Hello, the source for this data is PubChem BioAssay (NCATS), in case you need it.

assay: qHTS assay for small molecule antagonists of retinoid X receptor alpha signaling (AID 588546); settings: HEK293T RXRa-UAS-bla, beta-lactamase ratio, antagonist mode; measured here: W530 green channel, cytotoxicity proxy;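 note: cells stimulated with 9-cis-retinoic acid as agonist; % is set by controls: 0 for no effect and ±100 for the full control effect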
Results filed as inconclusive are left out.
Field: max response. Provide a value for each of the compounds that follow.
Report the value in % with no unit label.

Q: What value of measured max response is listed for CC(O)CN(CC(C)O)CC(C)O (stereo unspecified) ?
A: -0.813

Q: What value of measured max response is listed for COc1nc(C)nc(NC(=O)NS(=O)(=O)c2ccccc2CCC(F)(F)F)n1 ?
A: -4.25

Q: What value of measured max response is listed for CC(C)=C[C@@H]1[C@@H](C(=O)OCN2C(=O)C3=C(CCCC3)C2=O)C1(C)C ?
A: -15.3

Q: What value of measured max response is listed for N#CCNC(=O)c1cnccc1C(F)(F)F ?
A: -6.46

Q: What value of measured max response is listed for CCC(C)n1c(=O)[nH]c(C)c(Br)c1=O (stereo unspecified) ?
A: -12.2

Q: What value of measured max response is listed for CNC(=O)O/N=C(\C)SC ?
A: -3.33
